Item-by-item account of EC50 of AU565 cell kill, anti-kappa-ETA'-conjugated antibody
# assayed_system: human epidermal growth factor receptor 2 (HER2) (human, UniProt P04626 23-1255)
# assay_name: cell-based or functional assay

Query string: Any idea what its EC50 of AU565 cell kill, anti-kappa-ETA'-conjugated antibody is? The binder is HER2 antibody 084 (antibody, V domains shown) VH: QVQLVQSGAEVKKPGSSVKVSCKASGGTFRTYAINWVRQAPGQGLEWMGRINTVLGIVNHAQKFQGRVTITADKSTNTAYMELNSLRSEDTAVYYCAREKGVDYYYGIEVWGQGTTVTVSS VL: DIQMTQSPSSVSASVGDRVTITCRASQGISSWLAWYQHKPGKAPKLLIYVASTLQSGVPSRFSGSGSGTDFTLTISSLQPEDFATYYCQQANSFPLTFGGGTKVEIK
Result string: 0.027 µg/mL

Query string: Any idea what its EC50 of AU565 cell kill, anti-kappa-ETA'-conjugated antibody is? The binder is HER2 antibody 050 (antibody, V domains shown) VH: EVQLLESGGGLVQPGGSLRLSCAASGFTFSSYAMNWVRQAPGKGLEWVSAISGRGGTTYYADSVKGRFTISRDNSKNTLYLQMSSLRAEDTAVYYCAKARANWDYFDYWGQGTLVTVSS VL: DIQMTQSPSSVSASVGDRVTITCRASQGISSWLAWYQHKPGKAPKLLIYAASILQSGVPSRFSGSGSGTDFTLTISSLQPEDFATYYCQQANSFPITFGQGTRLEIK
Result string: 0.0127 µg/mL

Query string: Any idea what its EC50 of AU565 cell kill, anti-kappa-ETA'-conjugated antibody is? The binder is HER2 antibody 127 (antibody, V domains shown) VH: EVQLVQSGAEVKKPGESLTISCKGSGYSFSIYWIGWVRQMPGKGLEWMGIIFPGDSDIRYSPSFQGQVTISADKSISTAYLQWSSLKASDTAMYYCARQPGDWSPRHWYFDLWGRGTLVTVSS VL: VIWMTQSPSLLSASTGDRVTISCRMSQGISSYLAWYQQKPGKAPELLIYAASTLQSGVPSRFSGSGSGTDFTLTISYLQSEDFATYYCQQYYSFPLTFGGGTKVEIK
Result string: 0.0345 µg/mL

Query string: Any idea what its EC50 of AU565 cell kill, anti-kappa-ETA'-conjugated antibody is? The binder is HER2 antibody 153 (antibody, V domains shown) VH: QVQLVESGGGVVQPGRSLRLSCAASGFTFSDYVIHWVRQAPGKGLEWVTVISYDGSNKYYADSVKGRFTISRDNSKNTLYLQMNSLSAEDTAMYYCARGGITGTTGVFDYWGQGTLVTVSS VL: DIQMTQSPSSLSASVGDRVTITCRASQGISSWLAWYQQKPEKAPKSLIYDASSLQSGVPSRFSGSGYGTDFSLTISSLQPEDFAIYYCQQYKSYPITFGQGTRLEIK
Result string: 0.0323 µg/mL
